Tested on: HCT-116
Assay: Antiproliferative activity against human HCT-116 cells assessed as inhibition of cell viability measured after 72 hrs by colorimetric MTS viability assay
Type: functional, cell-based
Conditions: HCT-116, 72 h
Catalogue of IC50 readings, one per entry.
// units = µM; emit number, no label

Answered cases to consult:
# smilesStr, quantityName, unitInfo, reportedValue
data = [
    ("C[C@H]1[C@H](C)CC[C@]2(C(=O)O)CC[C@]3(C)C(=CC[C@@H]4[C@@]5(C)Cc6nnn(Cc7ccc8cc[nH]c8c7)c6C(C)(C)[C@@H]5CC[C@]43C)[C@H]12", "IC50", "µM", 11),
    ("C[C@H]1[C@H](C)CC[C@]2(C(=O)O)CC[C@]3(C)C(=CC[C@@H]4[C@@]5(C)Cc6nnn(Cc7ccc8[nH]ccc8c7)c6C(C)(C)[C@@H]5CC[C@]43C)[C@H]12", "IC50", "µM", 11.5),
]

Q: Any idea what its IC50 is? The molecule is `CC1(C)CC[C@]2(C(=O)O)CC[C@]3(C)C(=CC[C@@H]4[C@@]5(C)Cc6nnn(CCc7c[nH]c8ccccc78)c6C(C)(C)[C@@H]5CC[C@]43C)[C@@H]2C1`
Result: 11.1

Q: Any idea what its IC50 is? The molecule is `C[C@H]1[C@H](C)CC[C@]2(C(=O)O)CC[C@]3(C)C(=CC[C@@H]4[C@@]5(C)CC[C@H](O)C(C)(C)[C@@H]5CC[C@]43C)[C@H]12`
Result: 17.7

----------
Catalogue of IC50 readings, one per entry.
System: CAPAN-1
Experiment: cells
Assay type: functional, cell-based
Details: Homo sapiens, CAPAN-1, 72 h
Description: Antiproliferative activity against human CAPAN-1 cells assessed as inhibition of cell viability measured after 72 hrs by colorimetric MTS viability assay
// units = µM; emit number, no label

Answered cases to consult:
# smilesStr, targetEntity, IC50 (µM)
data = [
    ("C[C@H]1[C@H](C)CC[C@]2(C(=O)O)CC[C@]3(C)C(=CC[C@@H]4[C@@]5(C)CC[C@H](O)C(C)(C)[C@@H]5CC[C@]43C)[C@H]12", "CAPAN-1", 8.6),
    ("CC1(C)CC[C@]2(C(=O)O)CC[C@]3(C)C(=CC[C@@H]4[C@@]5(C)Cc6nnn(Cc7cccc8[nH]ccc78)c6C(C)(C)[C@@H]5CC[C@]43C)[C@@H]2C1", "CAPAN-1", 6.7),
]

Q: Any idea what its IC50 is? The molecule is `COc1ccc2[nH]cc(CCn3nnc4c3C(C)(C)[C@@H]3CC[C@]5(C)[C@H](CC=C6[C@@H]7CC(C)(C)CC[C@]7(C(=O)O)CC[C@]65C)[C@@]3(C)C4)c2c1`
Result: 8.1

----------
Tested on: NCI-H460
Test: cells
Type: functional, cell-based
Conditions: Homo sapiens, NCI-H460, 72 h
Description: Antiproliferative activity against human NCI-H460 cells assessed as inhibition of cell viability measured after 72 hrs by colorimetric MTS viability assay
Catalogue of IC50 readings, one per entry.
// units = µM; emit number, no label

Answered cases to consult:
# smilesStr, IC50, µM
records = [
    ("C[C@H]1[C@H](C)CC[C@]2(C(=O)O)CC[C@]3(C)C(=CC[C@@H]4[C@@]5(C)Cc6nnn(CCc7c[nH]c8ccccc78)c6C(C)(C)[C@@H]5CC[C@]43C)[C@H]12", 8.8),
    ("C[C@H]1[C@H](C)CC[C@]2(C(=O)O)CC[C@]3(C)C(=CC[C@@H]4[C@@]5(C)Cc6nnn(Cc7ccc8cc[nH]c8c7)c6C(C)(C)[C@@H]5CC[C@]43C)[C@H]12", 7.9),
    ("CC1(C)CC[C@]2(C(=O)O)CC[C@]3(C)C(=CC[C@@H]4[C@@]5(C)Cc6nnn(Cc7ccc8[nH]ccc8c7)c6C(C)(C)[C@@H]5CC[C@]43C)[C@@H]2C1", 8.3),
    ("CC1(C)CC[C@]2(C(=O)O)CC[C@]3(C)C(=CC[C@@H]4[C@@]5(C)Cc6nnn(Cc7cccc8[nH]ccc78)c6C(C)(C)[C@@H]5CC[C@]43C)[C@@H]2C1", 10.6),
]

Q: Form entry - test system: NCI-H460; read-out: IC50; molecule: `C[C@H]1[C@H](C)CC[C@]2(C(=O)O)CC[C@]3(C)C(=CC[C@@H]4[C@@]5(C)Cc6nnn(Cc7ccc8[nH]ccc8c7)c6C(C)(C)[C@@H]5CC[C@]43C)[C@H]12`
Result: 8.6

Q: Form entry - test system: NCI-H460; read-out: IC50; molecule: `C[C@H]1[C@H](C)CC[C@]2(C(=O)O)CC[C@]3(C)C(=CC[C@@H]4[C@@]5(C)Cc6nnn(Cc7cccc8[nH]ccc78)c6C(C)(C)[C@@H]5CC[C@]43C)[C@H]12`
Result: 9.2

Q: Form entry - test system: NCI-H460; read-out: IC50; molecule: `C[C@H]1[C@H](C)CC[C@]2(C(=O)O)CC[C@]3(C)C(=CC[C@@H]4[C@@]5(C)CC[C@H](O)C(C)(C)[C@@H]5CC[C@]43C)[C@H]12`
Result: 16.2

Q: Form entry - test system: NCI-H460; read-out: IC50; molecule: `COc1ccc2[nH]cc(CCn3nnc4c3C(C)(C)[C@@H]3CC[C@]5(C)[C@H](CC=C6[C@@H]7CC(C)(C)CC[C@]7(C(=O)O)CC[C@]65C)[C@@]3(C)C4)c2c1`
Result: 12.5

----------
Tested on: HCT-116
Assay: Antiproliferative activity against human HCT-116 cells assessed as inhibition of cell viability measured after 72 hrs by colorimetric MTS viability assay
Type: functional, cell-based
Details: HCT-116, 72 h
Catalogue of pIC50 readings, one per entry.
// scale note: pIC50 = -log10(conc_M); give the bare number

Answered cases to consult:
# smilesStr, pIC50
records = [
    ("CC1(C)CC[C@]2(C(=O)O)CC[C@]3(C)C(=CC[C@@H]4[C@@]5(C)Cc6nnn(Cc7ccc8cc[nH]c8c7)c6C(C)(C)[C@@H]5CC[C@]43C)[C@@H]2C1", 4.96),
    ("CC1(C)CC[C@]2(C(=O)O)CC[C@]3(C)C(=CC[C@@H]4[C@@]5(C)Cc6nnn(Cc7ccc8[nH]ccc8c7)c6C(C)(C)[C@@H]5CC[C@]43C)[C@@H]2C1", 4.92),
]

Q: Any idea what its pIC50 is? The compound is `CC1(C)CC[C@]2(C(=O)O)CC[C@]3(C)C(=CC[C@@H]4[C@@]5(C)Cc6nnn(Cc7cccc8[nH]ccc78)c6C(C)(C)[C@@H]5CC[C@]43C)[C@@H]2C1`
Result: 4.90

Q: Any idea what its pIC50 is? The compound is `CN[C@@H]1C[C@H]2O[C@@](C)([C@@H]1OC)n1c3ccccc3c3c4c(c5c6ccccc6n2c5c31)C(=O)NC4`
Result: 7.32

----------
Test system: Staphylococcus aureus
Test: Antibacterial activity against Staphylococcus aureus ATCC65385 assessed as growth inhibition after 20 hrs by broth microdilution method
Assay type: functional
Active and inactive are the calls of the source. No cut-off for these calls is given here.
quantityName: MIC50

# smilesStr, targetEntity, MIC50
records = [
    ("C=C(C)[C@@H]1CC[C@]2(CO)CC[C@]3(C)[C@H](CC[C@@H]4[C@@]5(C)Cc6nnn(Cc7ccc(OC)cc7)c6C(C)(C)[C@@H]5CC[C@]43C)[C@@H]12", "Staphylococcus aureus", "inactive"),
    ("C=C(C)[C@@H]1CC[C@]2(CO)CC[C@]3(C)[C@H](CC[C@@H]4[C@@]5(C)Cc6nnn(Cc7cccc8[nH]ccc78)c6C(C)(C)[C@@H]5CC[C@]43C)[C@@H]12", "Staphylococcus aureus", "inactive"),
    ("C=C(C)[C@@H]1CC[C@]2(CO)CC[C@]3(C)[C@H](CC[C@@H]4[C@@]5(C)Cc6nnn(CCc7c[nH]c8ccc(OC)cc78)c6C(C)(C)[C@@H]5CC[C@]43C)[C@@H]12", "Staphylococcus aureus", "inactive"),
    ("CC1(C)CC[C@]2(C(=O)O)CC[C@]3(C)C(=CC[C@@H]4[C@@]5(C)Cc6nnn(Cc7ccc8cc[nH]c8c7)c6C(C)(C)[C@@H]5CC[C@]43C)[C@@H]2C1", "Staphylococcus aureus", "199 µg/mL"),
]

Okay, next one:
Q: Any idea what its MIC50 is? The compound is `C[C@H]1[C@H](C)CC[C@]2(C(=O)O)CC[C@]3(C)C(=CC[C@@H]4[C@@]5(C)Cc6nnn(Cc7ccc8[nH]ccc8c7)c6C(C)(C)[C@@H]5CC[C@]43C)[C@H]12`
Result: 37 µg/mL

Origin of the recorded values: ChEMBL document CHEMBL4828727
